Origin of values: paper PMC11480844

B1: H2-Kb / Ed45 (parent complex)
chain 1: GEQVEQRPPHLSVREGDSAVIICTYTDPNSYYFFWYKQEPGAGLQLLMKVFSSTEINEGQGFTVLLNKKDKQLSLNLTAAHPGDSAVYFCAVSGTNAYKVIFGKGTHLHVLP
chain 2: EAAVTQSPRSKVAVTGGKVTLSCHQTNNHDYMYWYRQDTGHGLRLIHYSYVADSTEKGDIPDGYKASRPSQENFSLILELASLSQTAVYFCASARGFQDTQYFGPGTRLLVL
chain 3: not shown
chain 4: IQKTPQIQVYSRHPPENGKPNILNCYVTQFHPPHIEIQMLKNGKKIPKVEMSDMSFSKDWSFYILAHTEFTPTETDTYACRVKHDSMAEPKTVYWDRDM
chain 5: SIINFEKL

# Variants of: B1
# assay_notes: % of reporter cells activated (NFAT-GFP), raw; note: test concentration or dose not given here
quantity_measured: ratio to parent

chain 5 K7R
2.06
chain 5 K7D
0.247
chain 5 I2P
1.32

[1] chain 5 I2T
[2] chain 5 E6D
Which value of ratio to parent is smaller, the one for 1 or the one for 2 ? Identify your pick by its label. 2
(2: 0.542, 1: 1.23)

[1] chain 5 N4K
[2] chain 5 S1D
Which value of ratio to parent is smaller, the one for 1 or the one for 2 ? Identify your pick by its label. 2
(2: 0.424, 1: 1.07)

[A] chain 5 L8T
[B] chain 5 E6G
Select the item with the higher value of ratio to parent from the options A and B listed. Identify your pick by its label. A
(A: 1.72, B: 0.715)

[1] chain 5 I3T
[2] chain 5 S1Q
[3] chain 5 E6K
[4] chain 5 K7H
Arrange the 4 variants from largest to smallest ratio to parent. # the answer lists labels in the order requested 1, 4, 3, 2
